B1: Hairpin Ribozyme (parent)
chain: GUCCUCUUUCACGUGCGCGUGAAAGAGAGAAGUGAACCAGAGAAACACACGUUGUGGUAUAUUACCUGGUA

Variants of: B1
Experiment: self-cleavage, relative activity (ratio to wild type); higher = more cleavage; co-transcriptional
readout kind: self-cleavage
I'd appreciate a reply containing only the number, no unit.

Solved entries (count: 5):
{"columns": ["variant", "self-cleavage"],
 "data": [
  ["G13A A23G", 0.767],
  ["C10G G69C", 0.23],
  ["G1A A30G", 0.231],
  ["U2C U7A", 0.119],
  ["U5C A31C", 0.0543]
]}

QUERY: // returns reported self-cleavage for input U8C G40U
RESULT: 0.164

QUERY: // next record C18A C48U
RESULT: 0.214

QUERY: // next record G15C C50A
RESULT: 0.169

QUERY: // next record U14G G15A
RESULT: 0.932

QUERY: // next record G13A G57C
RESULT: 0.164

QUERY: // next record U9G G51C
RESULT: 0.614

QUERY: // next record C16G A44C
RESULT: 0.0851

QUERY: // next record C3U C12G
RESULT: 0.471
